target: Cytochrome P450 2D6 (Homo sapiens)
protocol-description: Cytochrome P450 Family 2 Subfamily D Member 6 (CYP2D6) small molecule antagonists: luciferase reporter qHTS assay (AID 1671196); further: nearly all actives have a fitted effect of over 50% in size; further: potency means the concentration at half of the fitted maximal effect
condition-notes: P450-Glo CYP2D6 enzyme assay, luciferin luminescence, 1 h; series mostly up to 115 µM
Results filed as inconclusive are left out. Activity calls are given as the source filed them. The call rests on the fitted dose curve; in most records, active means well fitted inhibition curve with a large enough effect in the repeat runs; inconclusive means weak or mixed curves; inactive means no such curve, though single readings can be large or run the other way.
endpoint-name: Potency

{"columns": ["compound", "endpoint-name", "value-measured"],
 "data": [
  ["CCCCCCCCCCCCCC[P+](CCCC)(CCCC)CCCC (tested in a mixture with another compound)", "Potency", "0.113 µM (active)"],
  ["Oc1cccc2cc3cccc(O)c3c(O)c12", "Potency", "inactive"],
  ["CC(C)n1nc(-c2cc3cc(O)ccc3[nH]2)c2c(N)ncnc21", "Potency", "30.9 µM (active)"],
  ["CN1CCC(Nc2ncc3ncnc(Nc4ccc(F)c(Cl)c4)c3n2)CC1", "Potency", "6.92 µM (active)"],
  ["Cc1ccc(O)c(C(C)(C)C)c1", "Potency", "inactive"]
]}

Please state Potency for every compound in the list that follows.
1. CCC(Cl)C(Cl)C(Cl)CC(Cl)C(Cl)C(C)Cl (stereo not given)
2. CC(NN)c1ccccc1 (stereo not given)

// result
["35.6 µM (active)", "15.1 µM (active)"]

Please state Potency for every compound in the list that follows.
1. Cc1c(C)c2c(c(C)c1OC(=O)CCC(=O)O)CC[C@@](C)(CCC[C@H](C)CCC[C@H](C)CCCC(C)C)O2
2. Nc1c(Cl)cc(Cl)cc1Cl
3. O=C1C=CC(=O)N1
4. CCCCCOc1ccccc1/C(=C\SC)n1ccnc1
5. OC1(c2ccc(Cl)c(C(F)(F)F)c2)CCN(CCCC(c2ccc(F)cc2)c2ccc(F)cc2)CC1
6. Cc1cc2c(cc1C(F)(F)F)N(C(=O)Nc1ccc(Oc3cccnc3C)nc1)CC2

// result
inactive
inactive
inactive
4.36 µM (active)
4.9 µM (active)
22.8 µM (active)

From: PubChem BioAssay (Tox21)
